Where these numbers come from: ChEMBL document CHEMBL3507680

assay: Human HepG2 cell viability assay in 384 well format; format: toxicity, cell-based; design: dose 125 nL, time 70.5 hour; concentration not given beside the values; conditions: HepG2 cells, read-out: Inhibition
Below is a list of entries, each paired with its recorded cytotoxicity at 70.5 h value.

Compound: O=C(NC1CC1)c1nnn(-c2cccc(C(F)(F)F)c2)c1C1CC1
cytotoxicity at 70.5 h: -8.39%
--
Compound: CCSCCC(C)N(C)C(=O)c1ccc(C)o1 (stereo unspecified)
cytotoxicity at 70.5 h: -1.62%
--
Compound: c1ccc(-c2nn3c(CN4CCOCC4)nnc3s2)nc1
cytotoxicity at 70.5 h: -3.21%
--
Compound: Cc1occc1C(=O)NCc1cccnc1N(C)C
cytotoxicity at 70.5 h: -14.4%
--
Compound: O=C([C@@H]1CCO[C@@H]2CCN(Cc3ccco3)C[C@H]21)N1CCCCO1
cytotoxicity at 70.5 h: -9.33%
--
Compound: Cc1ccc2c(c1)OCCCC2NCc1nccn1CC(C)C (stereo unspecified)
cytotoxicity at 70.5 h: -7.28%
